SYSTEM_TESTED: SCD1 (Homo sapiens, UniProt O00767)
Construct: host or cells: S. cerevisiae ole1Δ strain (W303 pdr1Δ pdr3Δ background), plasmid pRS316 with TDH3 promoter and CYC1 terminator
Sequence (O00767 whole entry): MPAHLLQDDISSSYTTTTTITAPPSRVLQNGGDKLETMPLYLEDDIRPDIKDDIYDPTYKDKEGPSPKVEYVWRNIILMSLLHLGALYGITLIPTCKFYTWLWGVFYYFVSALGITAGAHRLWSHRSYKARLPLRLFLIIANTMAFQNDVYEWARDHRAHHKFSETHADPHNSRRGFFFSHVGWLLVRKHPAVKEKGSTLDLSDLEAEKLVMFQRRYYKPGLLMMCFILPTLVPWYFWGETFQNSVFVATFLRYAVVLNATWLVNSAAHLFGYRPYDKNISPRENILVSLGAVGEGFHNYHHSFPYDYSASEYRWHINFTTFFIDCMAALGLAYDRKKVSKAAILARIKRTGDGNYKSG
TEST: Growth inhibition of humanized yeast strain expressing SCD1 as sole desaturase
Type: cell-based
CONDITIONS: humanized yeast strain expressing SCD1
Experimental: Strain oleΔ (yeast ole1 deletion mutant) was constructed by deleting OLE1 with NAT-MX6 in BY4741, amplifying the deletion cassette from the genomic DNA of the resulting strain with primers flanking the ORF by 1000 bp upstream and downstream, transforming the resulting deletion cassette into W303 pdr1Δ pdr3Δ, and plating transformants on YPD media containing G418 (200 μg/mL) and nourseothricin ([…]) with 0.01% TWEEN®-20 and 0.5 mM oleic and palmitoleic acids. […]
Parameter threshold = 70%. Response is Condition met when SCD1 % Max Inhibition meets or exceeds it, else Condition not met.

Answered cases to consult:
Cc1nn(C)c2cc(-c3noc(C4CCN(C(=O)CNC(=O)c5ccccc5)C4)n3)ccc12 (stereo not shown) : Condition met
Cc1nn(C)c2nc(-c3noc(C4CCN(C(=O)CN5Cc6ccccc6C5=O)CC4)n3)ccc12 : Condition not met
CCOc1ccc(-c2noc(N3CCC(C(=O)N4CCOC(c5ccccc5)C4)CC3)n2)cc1OC (stereo not shown) : Condition not met

Consider the record given below.
Exercise: Is SCD1 % Max Inhibition at least 70%? Consider Cc1nn(C)c2cc(-c3noc(N4CCN(C(=O)c5cc(F)ccc5C(F)(F)F)CC4)n3)ccc12
Key: Condition not met
